- Tested on: lipid oxidation stimulated by iron (II) ions in rat brain homogenate
- assayName: Antioxidant activity: MDA from iron(II)-stimulated lipid oxidation in brain homogenate
- Type: biochemical
- conditionSummary: 10 μM compound, 0.1% FeCl2 and 1 mM ascorbic acid, 1 h 37 °C
parameterMeasured: MDA (mM × 10^−3)
The answer is to be given in mM × 10^−3; state only the numeric part.

# count of solved cases: 6
COc1cccc(NC(=S)NNC(=O)c2cccc(C(F)(F)F)c2)c1; 1.703
Cc1cccc(NC(=S)NNC(=O)c2cccc(C(F)(F)F)c2)c1; 1.320
CCCCNC(=S)NNC(=O)c1cccc(C(F)(F)F)c1; 1.773
FC(F)(F)c1cccc(-c2n[nH]c(=S)n2-c2cccc(Cl)c2)c1; 2.022
O=C(NNC(=S)Nc1cccc(Cl)c1)c1cccc(C(F)(F)F)c1; 1.395
O=C(NNC(=S)Nc1cccc(F)c1)c1cccc(C(F)(F)F)c1; 1.274

Turning now to a further molecule:
Entry `O=C(NNC(=S)Nc1ccccc1)c1cccc(C(F)(F)F)c1` — recorded MDA = 1.450
